Recorded Papp B→A at 180 min, 100 μg/mL for the following compounds
protocol: in vitro
cond: human, Caco-2
Report as a plain number; the unit nm/s is understood.

The reported Papp B→A at 180 min, 100 μg/mL of the compound COc1ccc(-c2cc(=O)c3c(O)c(OC)c(OC)cc3o2)cc1O [Eupatorin] was 173

The reported Papp B→A at 180 min, 100 μg/mL of the compound COc1cc(-c2oc3cc(O)c(OC)c(O)c3c(=O)c2OC)cc(OC)c1O was 231

The reported Papp B→A at 180 min, 100 μg/mL of the compound COc1ccc2c(c1)OCC(=Cc1cccnc1)C2=O was 28.1

* * *

Recorded Papp A→B at 180 min, 100 μg/mL for the following compounds
protocol: in vitro
cond: human, Caco-2
Report as a plain number; the unit ×10⁻⁶ cm/s is understood.

Example entries and their recorded answers appear below.
compound	unitOfMeasurement	Papp A→B at 180 min, 100 μg/mL
COc1cc(-c2oc3cc(O)c(OC)c(O)c3c(=O)c2OC)cc(OC)c1O	×10⁻⁶ cm/s	3.24
COc1cc([C@@H]2Oc3c(OC)cc(CCCO)cc3[C@H]2CO)ccc1O [Dihydrodehydrodiconiferyl alcohol]	×10⁻⁶ cm/s	3.24
O=c1c(O[C@@H]2O[C@H](CO)[C@@H](O)[C@H](O)[C@H]2O)c(-c2ccc(O)cc2)oc2cc(O)cc(O)c12	×10⁻⁶ cm/s	0.78
CC(=O)Oc1ccccc1 [Phenyl acetate]	×10⁻⁶ cm/s	8.89
O=c1c(-c2ccc(O[C@@H]3O[C@H](CO)[C@@H](O)[C@H](O)[C@H]3O)cc2)coc2cc(O)cc(O)c12 [Sophoricoside]	×10⁻⁶ cm/s	1.63

The reported Papp A→B at 180 min, 100 μg/mL of the compound COc1ccc(-c2cc(=O)c3c(O)c(OC)c(OC)cc3o2)cc1O was 2.17

The reported Papp A→B at 180 min, 100 μg/mL of the compound COc1cc(C[C@H]2C(=O)OC[C@@H]2Cc2ccc(OC)c(OC)c2)ccc1O was 5.37

The reported Papp A→B at 180 min, 100 μg/mL of the compound COc1cc(O)c(CC=C(C)C)c2c1C(=O)CC(c1ccc(O)cc1)O2 (centres unmarked) was 3.5

* * *

Recorded efflux ratio at 180 min, 100 μg/mL for the following compounds
protocol: in vitro
cond: human, Caco-2
Respond numerically, and do not add a unit to the figure.

itemSmiles	endpoint	quantitativeResult
COc1ccc2c(c1)OCC(=Cc1cccnc1)C2=O	efflux ratio at 180 min, 100 μg/mL	0.13

The reported efflux ratio at 180 min, 100 μg/mL of the compound COc1cc(-c2oc3cc(O)c(OC)c(O)c3c(=O)c2OC)cc(OC)c1O was 7.13

The reported efflux ratio at 180 min, 100 μg/mL of the compound COc1cc(C[C@H]2C(=O)OC[C@@H]2Cc2ccc(OC)c(OC)c2)ccc1O was 4.69

* * *

Recorded Papp B→A at 180 min, 100 μg/mL for the following compounds
protocol: in vitro
cond: human, Caco-2
Report as a plain number; the unit ×10⁻⁶ cm/s is understood.

Example entries and their recorded answers appear below.
compound	Papp B→A at 180 min, 100 μg/mL [×10⁻⁶ cm/s]
CC(=O)Oc1ccccc1 [Phenyl acetate]	19.4
COc1ccc(/C=C/C(=O)O)cc1O	49.5
O=c1c(-c2ccc(O[C@@H]3O[C@H](CO)[C@@H](O)[C@H](O)[C@H]3O)cc2)coc2cc(O)cc(O)c12 [Sophoricoside]	9.89

// next item, Papp B→A at 180 min, 100 μg/mL requested
The reported Papp B→A at 180 min, 100 μg/mL of the compound O=c1c(O[C@@H]2O[C@H](CO)[C@@H](O)[C@H](O)[C@H]2O)c(-c2ccc(O)cc2)oc2cc(O)cc(O)c12 was 4.26

* * *

protocol: in vitro
cond: human, Caco-2
Recorded Papp B→A at 180 min, 100 μg/mL for the following compounds
Report as a plain number; the unit ×10⁻⁶ cm/s is understood.

Example entries and their recorded answers appear below.
compound	Papp B→A at 180 min, 100 μg/mL / ×10⁻⁶ cm/s
COc1cc(C[C@H]2C(=O)OC[C@@H]2Cc2ccc(OC)c(OC)c2)ccc1O	25.2
COc1cc(O)c(CC=C(C)C)c2c1C(=O)CC(c1ccc(O)cc1)O2 (stereo not drawn)	23.2

// next item, Papp B→A at 180 min, 100 μg/mL requested
The reported Papp B→A at 180 min, 100 μg/mL of the compound COc1cc([C@@H]2Oc3c(OC)cc(CCCO)cc3[C@H]2CO)ccc1O [Dihydrodehydrodiconiferyl alcohol] was 18.3
